System: SNB-75 CNS
MEASUREMENT DESCRIPTION: NCI-60 one-dose screen, 48 h (100 = growth as untreated, 0 = no growth, -100 = all killed)
RUN PARAMETERS: 10 µM
The panel holds about 83,000 compounds, 20% with a hit somewhere; the sample as a whole holds those more often.
growth listing for selected compounds.
Write the answer as a number in %, unit excluded.

See these solved cases before continuing.
COMPOUND	TARGET UNDER TEST	MEASUREMENT TYPE	MEASUREMENT UNITS	VAL
O=C(NNc1nc(N2CCCC2)nc(N2CCCC2)n1)c1ccccc1	SNB-75 CNS	growth	%	88.7
O=C(NC1CCN(Cc2ccccc2)CC1)c1cc(-c2ccncc2)nc2ccc(Cl)cc12	SNB-75 CNS	growth	%	68.7
Cn1c([N+](=O)[O-])cnc1C=C1C(=O)c2ccccc2C1=O	SNB-75 CNS	growth	%	51
CNC(=S)Sc1ccc([N+](=O)[O-])cc1[N+](=O)[O-]	SNB-75 CNS	growth	%	88.1
CCOC(=O)c1c(C(F)(F)F)n([O-])c2ccc(OC)cc2[n+]1=O	SNB-75 CNS	growth	%	11.8

Problem: Name the reported growth value associated with the compound Cc1ccc2nc(-c3ccc(OCC(=O)N=Nc4c(O)[nH]c5ccccc45)cc3)[nH]c2c1
Result: 109

Problem: Name the reported growth value associated with the compound COc1ccc(C2CC(c3ccc(-c4ccccc4)cc3)=NN2c2ccc(S(N)(=O)=O)cc2)cc1 (stereo not drawn)
Result: 81.7

Problem: Name the reported growth value associated with the compound Cc1ccc(-n2c(-c3cc4c([nH]c5ccccc54)c(-c4cccc(O)c4)n3)n[nH]c2=S)cc1
Result: 5.15
